I'd be grateful if you could share measured t95% (time after which 95% of reaction heat released) for these entries.
ASSAY PROCEDURE: photo-DSC monitoring of photopolymerization in hexanediol diacrylate
PARTICULARS: monomer HDDA, co-initiator DMAB
Write the quantity with the unit trailing the number.

For record CCC(=O)C(=O)OC [Compound 2, 2-oxobutanoic Acid Methyl Ester] the listed t95% (time after which 95% of reaction heat released) is 40.5 s

Consider CCOC(=O)C(=O)C(C)C [Compound 3, 2-oxo-3-Methylbutanoic Acid Ethyl Ester] . Its measured t95% (time after which 95% of reaction heat released) is 36.6 s

Looking up O=C(c1ccccc1)c1ccccc1 [BP, Benzophenone, reference compound] , I see its t95% (time after which 95% of reaction heat released) listed as 85.5 s

Query CCOC(=O)C(=O)C(C)(C)O [Compound E5] yields t95% (time after which 95% of reaction heat released) of 73.0 s

Quick note, t95% (time after which 95% of reaction heat released) for CCOC(=O)C(C)=O [Compound 1, 2-Oxopropanoic Acid Ethyl Ester] landed at 41.7 s

The measured t95% (time after which 95% of reaction heat released) associated with COC(=O)C(=O)C(C)(C)C [Compound 4] reads 42.5 s

Provenance of the data: patent US11518823B2
